Taken from PubChem BioAssay AID463173.

Tested on: DeltatarO mutant
Test name: S. aureus survival, RN4220 and DeltatarO strains – OD600, teichoic acid synthesis inhibitors, primary screen (AID 463173)
Conditions used: S. aureus RN4220 wild type/DeltatarO growth, OD600, 18 h, stronger effect = lower value, screened at 18.75 µg/mL (by protocol)
Out of some 52,000 compounds screened, about 4,300 (8.3%) were called active. Shown is part of a subset that was picked to be rich in actives.
Recorded metric: survival (%)
Record the value in %, omitting the unit from your answer.

Query: Tell me reported survival for `CCCOc1ccc(C(=O)N2CCC(c3nc4ccccc4s3)CC2)cc1` , tested with DeltatarO mutant.
Reply: 36

Query: Tell me reported survival for `Cc1cccc(OC(=O)CSc2nnc(-c3ccc4c(c3)OCO4)o2)c1C` , tested with DeltatarO mutant.
Reply: 72

Query: Tell me reported survival for `CCc1nnc(NC(=O)c2ccc(S(=O)(=O)N3CCc4ccccc4C3)cc2)s1` , tested with DeltatarO mutant.
Reply: 83

Query: Tell me reported survival for `Cc1cc(C)c2sc(N(Cc3cccnc3)C(=O)CCOc3ccccc3)nc2c1` , tested with DeltatarO mutant.
Reply: 115

Query: Tell me reported survival for `CCOc1ccc(NC(=O)CSc2nc3c(oc4ccccc43)c(=O)n2-c2ccccc2C)cc1` , tested with DeltatarO mutant.
Reply: 79

Query: Tell me reported survival for `COc1ccc(S(=O)(=O)N2CCC(C(=O)Nc3ccc(Oc4ccccc4)cc3)CC2)cc1` , tested with DeltatarO mutant.
Reply: 72

Query: Tell me reported survival for `Cc1ccc(NC(=O)Cn2nc(Cc3ccncc3)c3ccccc3c2=O)c(Cl)c1` , tested with DeltatarO mutant.
Reply: 66

Query: Tell me reported survival for `CCOC(=O)c1c(C)oc2nc(C)nc(NCC3CCN(Cc4ccc(C)cc4)CC3)c12` , tested with DeltatarO mutant.
Reply: 91

Query: Tell me reported survival for Cc1ccccc1C(=O)N1CCCCC1CCN1CCCCC1 (stereo unspecified) , tested with DeltatarO mutant.
Reply: 80

Query: Tell me reported survival for `CCOc1ccc(CNC(=O)Nc2ccc3c(c2)N(C)C(=O)c2ccccc2S3)cc1` , tested with DeltatarO mutant.
Reply: 75

Query: Tell me reported survival for `CC(=O)c1cccc(NC(=O)Cn2cnc3c2c(=O)n(C)c(=O)n3C)c1` , tested with DeltatarO mutant.
Reply: 44

Query: Tell me reported survival for COC(=O)CC1Oc2ccc(Cl)cc2-n2cc(-c3ccccc3)nc21 (stereo unspecified) , tested with DeltatarO mutant.
Reply: 63

Query: Tell me reported survival for `CCCOc1ccccc1C(=O)N1CCC(c2nc3ccccc3s2)CC1` , tested with DeltatarO mutant.
Reply: 63

Query: Tell me reported survival for `CC(C)Oc1ccc(C(=O)N2CCC(c3nc4ccccc4s3)CC2)cc1` , tested with DeltatarO mutant.
Reply: 49

Query: Tell me reported survival for `CCc1cccc(C)c1NS(=O)(=O)c1cc2[nH]c(=O)c(=O)[nH]c2cc1C` , tested with DeltatarO mutant.
Reply: 80

Query: Tell me reported survival for `Cc1ccc2nc(-c3ccc(NC(=O)COc4ccc(Br)cc4Br)cc3)sc2c1` , tested with DeltatarO mutant.
Reply: 104

Query: Tell me reported survival for `O=C(c1ccc(F)cc1)N1CCC(c2nc3ccccc3s2)CC1` , tested with DeltatarO mutant.
Reply: 76

Query: Tell me reported survival for `CCOc1cccc(C(=O)N2CCC(c3nc4ccccc4s3)CC2)c1` , tested with DeltatarO mutant.
Reply: 75

Query: Tell me reported survival for `COc1ccc(-n2c(=O)c3c4c(sc3n(Cc3ccc(F)cc3)c2=O)CCCC4)c(OC)c1` , tested with DeltatarO mutant.
Reply: 47

Query: Tell me reported survival for CCNC(=O)C1CCCN(c2nnc(C)c3c(C)n(-c4ccc(C)cc4)nc23)C1 (stereo unspecified) , tested with DeltatarO mutant.
Reply: 78

Query: Tell me reported survival for `CCOc1cc(CNC(=O)Cn2c(=O)c3cccn3c3ccc(F)cc32)cc(OCC)c1OCC` , tested with DeltatarO mutant.
Reply: 50
